molecular target: recombinant human VAP-1 (Homo sapiens, UniProt Q16853); construct: purchased R&D systems; assay: Activity on recombinant human VAP-1, Amplex Red HRP-coupled hydrogen peroxide assay, benzylamine substrate; format: biochemical; details: recombinant human VAP-1, benzylamine substrate, 30 min preincubation at 37° C.; read-out: Inhibitory Activity (IC50, nM) human VAP-1
Sequence (Q16853 whole entry): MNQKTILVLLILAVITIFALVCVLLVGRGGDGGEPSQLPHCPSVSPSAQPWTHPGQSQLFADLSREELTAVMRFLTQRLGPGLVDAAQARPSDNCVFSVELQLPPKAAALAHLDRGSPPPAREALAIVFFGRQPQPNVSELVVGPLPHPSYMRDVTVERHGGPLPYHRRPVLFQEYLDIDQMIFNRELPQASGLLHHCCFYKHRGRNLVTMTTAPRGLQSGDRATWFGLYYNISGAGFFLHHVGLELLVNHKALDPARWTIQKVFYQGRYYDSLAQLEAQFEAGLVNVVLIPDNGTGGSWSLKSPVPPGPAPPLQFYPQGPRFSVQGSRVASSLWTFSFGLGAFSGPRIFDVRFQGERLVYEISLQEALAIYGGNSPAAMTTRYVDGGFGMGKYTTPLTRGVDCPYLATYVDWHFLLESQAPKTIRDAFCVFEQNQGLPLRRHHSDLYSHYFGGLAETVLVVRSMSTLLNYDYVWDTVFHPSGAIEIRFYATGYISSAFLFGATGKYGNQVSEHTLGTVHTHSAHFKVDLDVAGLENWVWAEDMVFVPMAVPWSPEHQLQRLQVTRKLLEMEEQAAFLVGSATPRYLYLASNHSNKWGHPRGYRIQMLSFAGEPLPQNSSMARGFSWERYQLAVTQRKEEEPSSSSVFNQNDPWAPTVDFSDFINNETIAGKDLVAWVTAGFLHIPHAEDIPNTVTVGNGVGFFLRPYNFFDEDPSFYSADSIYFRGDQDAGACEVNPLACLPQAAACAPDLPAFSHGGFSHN
Where a name gives a salt, the structure may show the parent alone.
endpoint: IC50 (nM)

See these solved cases before continuing.
The measured IC50 associated with NC/C(=C/F)Cn1ncn(-c2ccc(F)c(F)c2)c1=O [Example 9] reads 5.4

The measured IC50 associated with NC/C(=C/F)Cn1ncn(-c2ccc(Br)cc2)c1=O [Example 1] reads 17

The measured IC50 associated with COc1cc(-n2cnn(C/C(=C\F)CN)c2=O)ccc1Br [Example 17] reads 2.7

The measured IC50 associated with NC/C(=C/F)Cn1ncn(-c2c(F)cc(Br)cc2F)c1=O [Example 21, hydrochloride] reads 7.3

The measured IC50 associated with NC/C(=C\F)Cn1ncn(-c2ccc(-c3ccc4nonc4c3)cc2F)c1=O [Example 46, hydrochloride] reads 0.32

The measured IC50 associated with CS(=O)(=O)c1ccc(-c2cccc(-c3cccc(-n4cnn(C/C(=C/F)CN)c4=O)c3)c2)cc1 [Example 67] reads 0.77

The measured IC50 associated with Cc1cc(-c2ccc(C(=O)N3CCOCC3)cc2)cnc1-n1cnn(C/C(=C/F)CN)c1=O [Example 146, hydrochloride] reads 0.7

A = Cc1cc(N2CCNCC2)cnc1-n1cnn(C/C(=C/F)CN)c1=O [Example 131]
B = NC/C(=C\F)Cn1ncn(-c2cccc(-c3ccc(-c4noc(C5CC5)n4)cc3)c2)c1=O [Example 63, hydrochloride]
## Task Could you check which of A and B has a smaller value for IC50? // output: label of the selected item
## Result B
(B: 1 nM, A: 8.2 nM)
